Reference for the values: patent US4711898A

Test system: SRS-A (slow reacting substance of anaphylaxis) contraction of ileum
ASSAY_COMMENT: Anti-SRS-A action using ileus of guinea pigs
Assay type: cell-based, Hartley strain male guinea pigs
TEST_CONTEXT: Cavia porcellus, 5 min, 1/1000 mM; guinea pig ileum; SRS-A 20 units; compound five minutes before; read-out: 1/1000 mM SRS-A Inhibition Ratio %
Returns yes (1) if the recorded inhibition at 1 µM is greater than or equal to 10%, and no (0) otherwise.

{"columns": ["SMILES_DATA", "CLASS_NAME"],
 "data": [
  ["CCCCCCCCc1ccc(-c2cc(=O)c3cccc(C(=O)OCC)c3[nH]2)cc1", "yes (1)"],
  ["COc1ccc(-c2cc(=O)c3cc(C(=O)O)ccc3[nH]2)cc1OC", "yes (1)"],
  ["O=C(OCCCCCCO)c1cccc2c(=O)cc(-c3ccccc3Cl)[nH]c12", "no (0)"],
  ["CCOC(=O)c1cccc2c(=O)cc(-c3ccc(Cl)cc3)[nH]c12", "yes (1)"],
  ["Cc1ccc(-c2cc(=O)c3cc(C(=O)O)ccc3[nH]2)c(C)c1", "yes (1)"]
]}

----------
compounds and their reported Lethal Ratio
Test system: male mice
ASSAY_COMMENT: Acute toxicity after oral administration
Format: in vivo
TEST_CONTEXT: mouse, in vivo

{"columns": ["COMPOUND", "Lethal Ratio"],
 "data": [
  ["COC(=O)c1ccc2[nH]c(-c3ccccc3OC)cc(=O)c2c1 [Example 56]", "1/4"],
  ["CCOC(=O)c1cccc2c(=O)cc(-c3ccc(C)cc3C)[nH]c12 [Example 94]", "1/4"],
  ["CCOC(=O)c1cccc2c(=O)cc(-c3ccc(Cl)cc3Cl)[nH]c12 [Example 89]", "0/4"],
  ["Cc1ccccc1-c1cc(=O)c2cc(C(=O)O)ccc2[nH]1 [Example 42]", "0/4"],
  ["COC(=O)c1ccc2[nH]c(-c3ccccc3I)cc(=O)c2c1 [Example 28]", "0/4"],
  ["O=C(O)c1cccc2c(=O)cc(-c3ccccc3Cl)[nH]c12 [Example 85]", "0/4"],
  ["CCCCCCn1c(-c2ccccc2)cc(=O)c2cc(C(=O)O)ccc21 [Example 20]", "1/4"]
]}

----------
Test system: SRS-A (slow reacting substance of anaphylaxis) contraction of ileum
ASSAY_COMMENT: Anti-SRS-A action using ileus of guinea pigs
Format: cell-based, Hartley strain male guinea pigs
TEST_CONTEXT: Cavia porcellus, 5 min, 1/1000 mM; guinea pig ileum; SRS-A 20 units; compound five minutes before; read-out: 1/1000 mM SRS-A Inhibition Ratio %
From the text: The compounds of the present invention have been evaluated for their anti-allergenic action by passive cutaneous anaphylatic assay (PCA) in rats and by measuring the anti-SRS-A action using ileus of guinea pigs. Anti-SRS-A action (An anti-acton against slow reacting substance of anaphylaxis). […]
PROPERTY_NAME: inhibition at 1 µM (%)

{"columns": ["SMILES_DATA", "TARGET_ENTITY", "PROPERTY_NAME", "EXPERIMENTAL_VALUE"],
 "data": [
  ["Cc1ccc(-c2cc(=O)c3cccc(C(=O)OCCO)c3[nH]2)c(C)c1", "SRS-A (slow reacting substance of anaphylaxis) contraction of ileum", "inhibition at 1 µM", 15.4],
  ["O=C(O)c1ccc2[nH]c(-c3cccc(C(F)(F)F)c3)cc(=O)c2c1", "SRS-A (slow reacting substance of anaphylaxis) contraction of ileum", "inhibition at 1 µM", 30],
  ["COC(=O)c1ccc2[nH]c(-c3ccncc3)cc(=O)c2c1", "SRS-A (slow reacting substance of anaphylaxis) contraction of ileum", "inhibition at 1 µM", 21.4],
  ["Cn1c(-c2ccccc2)cc(=O)c2cc(C(=O)O)ccc21", "SRS-A (slow reacting substance of anaphylaxis) contraction of ileum", "inhibition at 1 µM", 22],
  ["COC(=O)c1ccc(-c2cc(=O)c3cc(C(=O)OC)ccc3[nH]2)cc1", "SRS-A (slow reacting substance of anaphylaxis) contraction of ileum", "inhibition at 1 µM", 36.8],
  ["Cc1ccccc1-c1cc(=O)c2cccc(C(=O)OCCO)c2[nH]1", "SRS-A (slow reacting substance of anaphylaxis) contraction of ileum", "inhibition at 1 µM", 5.2],
  ["O=C(O)c1ccc2[nH]c(-c3ccccc3Cl)cc(=O)c2c1", "SRS-A (slow reacting substance of anaphylaxis) contraction of ileum", "inhibition at 1 µM", 26.4],
  ["Cc1c(-c2ccccc2)[nH]c2ccc(C(=O)O)cc2c1=O", "SRS-A (slow reacting substance of anaphylaxis) contraction of ileum", "inhibition at 1 µM", 21],
  ["O=C(O)c1cccc2c(=O)cc(-c3ccc(Cl)c(Cl)c3)[nH]c12", "SRS-A (slow reacting substance of anaphylaxis) contraction of ileum", "inhibition at 1 µM", 24.2],
  ["CCOC(=O)c1cccc2c(=O)cc(-c3cccc(Cl)c3)[nH]c12", "SRS-A (slow reacting substance of anaphylaxis) contraction of ileum", "inhibition at 1 µM", 62.5],
  ["CCCn1c(-c2ccccc2)cc(=O)c2cc(C(=O)O)ccc21", "SRS-A (slow reacting substance of anaphylaxis) contraction of ileum", "inhibition at 1 µM", 19.7],
  ["CCOCCOCCOC(=O)c1cccc2c(=O)cc(-c3ccccc3Cl)[nH]c12", "SRS-A (slow reacting substance of anaphylaxis) contraction of ileum", "inhibition at 1 µM", 10.2],
  ["COC(=O)c1cccc2c1N=C(c1ccccc1Cl)CC2=O", "SRS-A (slow reacting substance of anaphylaxis) contraction of ileum", "inhibition at 1 µM", 14.7],
  ["COC(=O)c1ccc2c(c1)c(=O)cc(-c1ccccc1)n2C", "SRS-A (slow reacting substance of anaphylaxis) contraction of ileum", "inhibition at 1 µM", 100],
  ["COC(=O)c1ccc2[nH]c(-c3ccc(OC)cc3OC)cc(=O)c2c1", "SRS-A (slow reacting substance of anaphylaxis) contraction of ileum", "inhibition at 1 µM", 48.2],
  ["CC(C)COC(=O)c1cccc2c(=O)cc(-c3ccccc3Cl)[nH]c12", "SRS-A (slow reacting substance of anaphylaxis) contraction of ileum", "inhibition at 1 µM", 25],
  ["O=C(OCCOc1ccccc1)c1cccc2c(=O)cc(-c3ccccc3Cl)[nH]c12", "SRS-A (slow reacting substance of anaphylaxis) contraction of ileum", "inhibition at 1 µM", 73.4],
  ["C=CCn1c(-c2ccccc2)cc(=O)c2cc(C(=O)OC)ccc21", "SRS-A (slow reacting substance of anaphylaxis) contraction of ileum", "inhibition at 1 µM", 22.7],
  ["N#CCOC(=O)c1cccc2c(=O)cc(-c3ccccc3Cl)[nH]c12", "SRS-A (slow reacting substance of anaphylaxis) contraction of ileum", "inhibition at 1 µM", 3.4]
]}
